Reported IC50 IL-2, whole blood Donor B by item:
Target: human Orai1 (human, UniProt Q96D31 1-301)
Sequence (Q96D31 whole entry): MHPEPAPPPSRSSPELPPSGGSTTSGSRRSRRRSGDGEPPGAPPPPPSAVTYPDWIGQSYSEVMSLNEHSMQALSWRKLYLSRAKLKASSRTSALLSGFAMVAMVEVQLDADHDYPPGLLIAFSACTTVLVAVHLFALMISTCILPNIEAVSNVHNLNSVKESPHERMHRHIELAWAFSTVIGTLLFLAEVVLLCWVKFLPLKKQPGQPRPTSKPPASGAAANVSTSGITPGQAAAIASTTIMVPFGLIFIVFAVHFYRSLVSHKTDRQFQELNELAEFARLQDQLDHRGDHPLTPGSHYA
Assay: cell-based or functional assay
measuredProperty: IC50 IL-2, whole blood Donor B (nM)

>>> measured("mAb 5C1.1 (antibody, human IgG2, lambda, V domains shown, fully human IgG2 lambda, Campaign 2) VH: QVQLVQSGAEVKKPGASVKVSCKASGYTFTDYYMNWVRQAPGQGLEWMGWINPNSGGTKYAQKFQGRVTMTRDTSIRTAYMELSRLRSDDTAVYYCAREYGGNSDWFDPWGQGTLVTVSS VL: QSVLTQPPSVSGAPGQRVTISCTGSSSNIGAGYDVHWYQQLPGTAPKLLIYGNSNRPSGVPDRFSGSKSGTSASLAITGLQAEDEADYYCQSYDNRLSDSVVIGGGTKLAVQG")
1.24
>>> measured("mAb 5B1.1 (antibody, human IgG2, lambda, V domains shown, fully human IgG2 lambda, Campaign 2; also called mAb 5Bl1.1) VH: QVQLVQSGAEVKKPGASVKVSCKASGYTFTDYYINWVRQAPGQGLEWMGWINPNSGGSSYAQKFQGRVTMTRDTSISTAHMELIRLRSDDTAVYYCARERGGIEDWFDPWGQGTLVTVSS VL: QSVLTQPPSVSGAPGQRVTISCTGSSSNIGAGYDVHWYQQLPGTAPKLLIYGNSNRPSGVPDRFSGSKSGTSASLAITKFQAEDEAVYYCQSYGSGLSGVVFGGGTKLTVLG")
4.45
